# Tested on: NCI-60 human cancer cell line panel (Homo sapiens)
# measurement description: Cytotoxicity against NCI-60 human cancer cell line panel (mean) at 10 uM
# protocol conditions: pooled result: one value given for 8 cell lines, strains, targets or settings, read-out: GI
parameter: inhibition of growth at 10 µM

mol_smiles=O=c1c2ccccc2cc2n1Cc1c-2nc2cc(Cl)ccc2c1CN1CC[C@H](O)C1 parameter="inhibition of growth at 10 µM" reported_measurement="< 15%"
mol_smiles=O=c1c2ccccc2cc2n1Cc1c-2nc2cc(Cl)ccc2c1CNCCCn1ccnc1 parameter="inhibition of growth at 10 µM" reported_measurement="> 15%"
mol_smiles=Cc1cc2c(CNCCO)c3c(nc2cc1F)-c1cc2ccccc2c(=O)n1C3 parameter="inhibition of growth at 10 µM" reported_measurement="> 25%"
mol_smiles=O=c1c2ccccc2cc2n1Cc1c-2nc2cc(Cl)ccc2c1Cn1ccnc1 parameter="inhibition of growth at 10 µM" reported_measurement="< 15%"

###

# experimental system: UniProt:P11387
# Sequence (P11387 whole entry): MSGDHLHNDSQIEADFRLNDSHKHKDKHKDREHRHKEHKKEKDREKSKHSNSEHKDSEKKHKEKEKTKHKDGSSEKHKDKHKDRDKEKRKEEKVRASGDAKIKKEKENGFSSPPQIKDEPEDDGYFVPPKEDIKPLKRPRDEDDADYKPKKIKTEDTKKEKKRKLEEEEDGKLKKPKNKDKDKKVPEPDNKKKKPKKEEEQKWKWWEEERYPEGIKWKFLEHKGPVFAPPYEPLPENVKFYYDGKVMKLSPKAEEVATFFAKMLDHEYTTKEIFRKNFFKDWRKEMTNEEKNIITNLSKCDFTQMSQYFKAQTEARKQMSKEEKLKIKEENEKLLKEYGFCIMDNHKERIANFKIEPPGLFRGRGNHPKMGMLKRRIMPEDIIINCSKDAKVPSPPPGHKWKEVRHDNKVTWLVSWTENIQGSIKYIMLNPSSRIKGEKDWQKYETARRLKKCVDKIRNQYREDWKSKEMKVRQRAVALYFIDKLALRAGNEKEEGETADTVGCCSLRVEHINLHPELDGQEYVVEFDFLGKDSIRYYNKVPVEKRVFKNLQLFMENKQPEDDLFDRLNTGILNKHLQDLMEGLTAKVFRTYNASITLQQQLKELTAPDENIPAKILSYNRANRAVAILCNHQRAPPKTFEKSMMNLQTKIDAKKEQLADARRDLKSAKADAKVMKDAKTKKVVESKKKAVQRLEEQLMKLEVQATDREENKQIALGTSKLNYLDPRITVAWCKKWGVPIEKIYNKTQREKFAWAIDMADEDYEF
# measurement description: Inhibition of human recombinant Top1-mediated DNA cleavage at 0.1 to 100 uM after 20 mins relative to camptothecin
# Set-up: scale not given: the % may be the effect or the level left
Recorded measurements of Activity, one per entry
parameter: Activity

mol_smiles=Cc1cc2c(CNCCO)c3c(nc2cc1F)-c1cc2ccccc2c(=O)n1C3 parameter=Activity reported_measurement=50%
mol_smiles=CN1CCN(Cc2c3c(nc4cc(Cl)ccc24)-c2cc4ccccc4c(=O)n2C3)CC1 parameter=Activity reported_measurement=20%
mol_smiles=Cc1cc2c(CN3CC[C@H](O)C3)c3c(nc2cc1F)-c1cc2ccccc2c(=O)n1C3 parameter=Activity reported_measurement=50%
mol_smiles=NCCCc1c2c(nc3cc4c(cc13)OCCO4)-c1cc3ccccc3c(=O)n1C2 parameter=Activity reported_measurement=75%
mol_smiles=CN1CCN(Cc2c3c(nc4ccc(Cl)cc24)-c2cc4ccccc4c(=O)n2C3)CC1 parameter=Activity reported_measurement=20%
